Taken from PubChem BioAssay AID504850.

Assay: Confirmation screen for delayed death inhibitors of the malarial parasite plastid, 48 hour incubation; note: nearly all actives have a fitted effect of over 65% in size
Conditions: P. falciparum-infected erythrocytes, luciferase growth; series mostly up to 28.7 µM
About 1,200 (52%) of roughly 2,300 compounds were called active. Not shown: some 34% with an inconclusive outcome. Calls come from the whole dose curve; as a rule, active = well fitted inhibition curve with a large enough effect; inconclusive = small, poorly fitted or top-dose-only effect, or effect the other way; inactive = no such curve, though single readings can be large or run the other way. The set was probably picked from earlier hits. This is one part of the list.
Return exactly one item of True for active, False for inactive

Example cases with answers are listed next.
INSERT INTO assay_data (molecule, group) VALUES
  ('O=C(Nc1ccccc1C(F)(F)F)N1CCN(c2ccc3nnc(-c4ccc(F)cc4)n3n2)CC1', 'True'),
  ('CCCN1CCC(NC(=O)CC2C(=O)NCCN2Cc2cccc(OC)c2)CC1 (stereo not given)', 'False'),
  ('O=C(NCc1ccc(F)cc1)C1CCN(S(=O)(=O)c2ccc(Br)s2)CC1', 'True');

Check the results log: what was the call for `Cn1c(=O)oc2cc(S(=O)(=O)NCCC(=O)NCc3ccc(F)cc3)ccc21` ?
True

Check the results log: what was the call for `CCC(=O)NCCc1cc2ccc(C)cc2[nH]c1=O` ?
False

Check the results log: what was the call for `COc1cc2cc(CN(CCc3ccccc3C)C(=S)NCCCN3CCOCC3)c(=O)[nH]c2cc1OC` ?
True

====

Test: Confirmation screen for delayed death inhibitors of the malarial parasite plastid, 48 hour incubation; note: nearly all actives have a fitted effect of over 65% in size
Details: P. falciparum-infected erythrocytes, luciferase growth; series mostly up to 28.7 µM
The campaign covered roughly 2,300 compounds. About 1,200 (52%) were called active. Inconclusive results (about 34%) are left out. Calls come from the whole dose curve; as a rule, active = well fitted inhibition curve with a large enough effect; inconclusive = small, poorly fitted or top-dose-only effect, or effect the other way; inactive = no such curve, though single readings can be large or run the other way. The set was probably picked from earlier hits. The list shows a part of the results.
Return exactly one item of 1 for active, -1 for inactive

Example cases with answers are listed next.
INSERT INTO assay_data (compound, group) VALUES
  ('COc1ccc(C(=O)N2CCN(S(=O)(=O)c3ccc(C)cc3C)CC2)cc1OC', 1),
  ('Cc1ccc(S(=O)(=O)N2CCN(C(=O)c3ccc(Br)o3)CC2)c(C)c1', 1),
  ('Cc1ccccc1OCC(=O)NCCC1=CCCCC1', -1),
  ('COc1ccccc1CNC(=O)c1ccc2c(=O)n3c(nc2c1)CCCCC3', 1),
  ('Cc1c(Cc2ccccc2)c(=O)oc2cc(OC(C)C(=O)NCC3CCC(C(=O)O)CC3)c(Cl)cc12 (stereo unspecified)', 1),
  ('Cc1ccc(Nc2nc(=O)c3cccnc3s2)c(Br)c1', -1),
  ('CCCCNC(=O)c1onc(CSc2cccc3ccccc23)c1C(=O)O', -1),
  ('COc1ccc(C)cc1S(=O)(=O)N1CCN(S(=O)(=O)c2cc(C(=O)O)ccc2C)CC1', 1);

Check the results log: what was the call for `Cc1cc(C)c(C(=O)/C=C/c2cccc3ccccc23)c(=O)[nH]1` ?
1

Check the results log: what was the call for `CCN(CC)C(=O)N1c2ccccc2C=Cc2ccccc21` ?
1

Check the results log: what was the call for `CC1CCN(C(=O)Cn2cc(C(=O)c3ccco3)c3ccccc32)CC1` ?
1

====

Test: Confirmation screen for delayed death inhibitors of the malarial parasite plastid, 48 hour incubation; note: nearly all actives have a fitted effect of over 65% in size
Details: P. falciparum-infected erythrocytes, luciferase growth; series mostly up to 28.7 µM
Out of some 2,300 compounds screened, about 1,200 (52%) were called active. Another 34% or so got no clear call; they are omitted. Calls follow the shape of the dose curve; as a rule, active = well fitted inhibition curve with a large enough effect; inconclusive = small, poorly fitted or top-dose-only effect, or effect the other way; inactive = no such curve, though single readings can be large or run the other way. So high a share suggests a set chosen from earlier hits. This is one part of the list.
Return exactly one item of active, inactive

INSERT INTO measurements (compound, group) VALUES
  ('Cc1cccc(N2CCN(C3=NC(=O)C(Cc4ccccc4)S3)CC2)c1 (configuration not stated)', 'active'),
  ('N#CCc1nc(C(c2ccccc2)c2ccccc2)no1', 'active'),
  ('O=c1[nH]c(=O)n(Cc2ccco2)c2c1C(C(F)(F)F)(C(F)(F)F)N=C(CCc1ccccc1)N2', 'active'),
  ('CN1C[C@@H]2C[C@H]1CN2c1cc2c(cc1F)c(=O)c(C(=O)O)cn2C1CC1', 'active'),
  ('Cc1ccc(C(=O)Nc2ccccc2SCC2CSc3nc4ccccc4c(=O)n32)cc1 (configuration not stated)', 'active'),
  ('COc1cc(-c2ccc(NC(=O)NC3CC3)c(OC)c2)ccc1NC(=O)NC1CC1', 'active'),
  ('O=C(Nc1ccccc1SCC1CSc2nc3ccccc3c(=O)n21)c1cccc(Cl)c1 (configuration not stated)', 'active'),
  ('O=C(Nc1ccccc1SCC1CSc2nc3ccccc3c(=O)n21)c1ccccc1Cl (configuration not stated)', 'active');

Could you now consider this next compound?
Check the results log: what was the call for `Cc1cc(C)c(NC(=O)c2cccc3c2C(=O)N(C2CCCCC2)C3)c(C)c1` ?
active
